ASSAYED TARGET: F508del-CFTR (Homo sapiens, UniProt P13569, DEL508-508)
Sequence (P13569 with tags, fused parts or gaps DEL508-508): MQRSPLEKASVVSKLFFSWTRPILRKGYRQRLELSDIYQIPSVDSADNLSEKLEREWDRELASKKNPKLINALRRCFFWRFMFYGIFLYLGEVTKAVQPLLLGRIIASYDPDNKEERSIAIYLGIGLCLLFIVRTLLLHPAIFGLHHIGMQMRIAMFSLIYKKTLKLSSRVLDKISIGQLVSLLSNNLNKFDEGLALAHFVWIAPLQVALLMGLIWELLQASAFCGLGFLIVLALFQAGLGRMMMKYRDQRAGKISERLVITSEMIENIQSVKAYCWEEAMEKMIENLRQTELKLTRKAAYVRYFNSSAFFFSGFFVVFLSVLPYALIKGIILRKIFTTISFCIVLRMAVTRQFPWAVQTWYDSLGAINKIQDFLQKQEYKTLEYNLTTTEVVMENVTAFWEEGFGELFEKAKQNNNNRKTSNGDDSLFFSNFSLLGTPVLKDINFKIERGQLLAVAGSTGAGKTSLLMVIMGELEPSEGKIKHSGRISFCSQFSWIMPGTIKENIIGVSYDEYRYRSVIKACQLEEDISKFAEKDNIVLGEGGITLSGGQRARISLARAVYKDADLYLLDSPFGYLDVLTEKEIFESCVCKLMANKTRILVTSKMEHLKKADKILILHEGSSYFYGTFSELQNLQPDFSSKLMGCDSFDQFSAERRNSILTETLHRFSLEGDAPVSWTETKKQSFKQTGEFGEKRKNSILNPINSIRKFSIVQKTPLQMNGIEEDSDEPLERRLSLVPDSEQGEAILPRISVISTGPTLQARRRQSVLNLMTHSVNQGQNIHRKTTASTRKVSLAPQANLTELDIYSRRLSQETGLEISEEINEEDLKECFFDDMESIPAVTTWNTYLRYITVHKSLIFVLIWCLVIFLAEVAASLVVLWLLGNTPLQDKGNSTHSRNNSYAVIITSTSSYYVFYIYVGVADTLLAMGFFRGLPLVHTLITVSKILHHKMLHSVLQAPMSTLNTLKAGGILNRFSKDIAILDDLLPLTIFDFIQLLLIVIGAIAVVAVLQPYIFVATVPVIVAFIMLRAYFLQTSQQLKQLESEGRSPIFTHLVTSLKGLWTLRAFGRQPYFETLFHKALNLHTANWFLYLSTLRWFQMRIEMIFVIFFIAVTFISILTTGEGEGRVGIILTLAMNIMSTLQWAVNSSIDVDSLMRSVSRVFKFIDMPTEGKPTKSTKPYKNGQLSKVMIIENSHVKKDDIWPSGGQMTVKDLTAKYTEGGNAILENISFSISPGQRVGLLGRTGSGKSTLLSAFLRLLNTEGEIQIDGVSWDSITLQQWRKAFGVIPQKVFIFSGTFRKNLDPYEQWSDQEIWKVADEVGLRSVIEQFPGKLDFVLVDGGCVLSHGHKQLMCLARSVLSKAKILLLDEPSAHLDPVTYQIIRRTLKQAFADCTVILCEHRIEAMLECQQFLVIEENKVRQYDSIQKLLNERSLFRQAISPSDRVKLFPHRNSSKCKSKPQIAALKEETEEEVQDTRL
MEASUREMENT DESCRIPTION: HS-YFP kinetic fluorescence (iodide quenching rate) assay in CFBE41o− cells
Format: cell-based
Set-up: expressed in transfected cells; host or cells: CFBE41o- cells with expression of F508del-CFTR and HS-YFP (generated as in Sondo et al. 2011)
TEST SETTINGS: relative to the analogue
RECORDED METRIC: structure-activity comparison of corrector potency/activity

>>> obs_value("Cc1ccc(Cn2c(C(=O)OC(C)C)c(Br)c3c2-c2[nH]c(=O)c(S(=O)(=O)c4ccccc4)cc2CC3)cc1")
"Increased activity"
>>> obs_value("CCOC(=O)c1c(Br)c2ccc3cc(S(=O)(=O)c4ccccc4)c(=O)[nH]c3c2n1Cc1ccc(C)cc1")
"Increased activity"
